TESTED_ON: α7 nAChR S36V mutant (Homo sapiens, UniProt P36544, S58V)
ASSAY_SUMMARY: Concentration-response curves
TEST_CONTEXT: net charge CRC, parenthetical = curve-fit error
Would you kindly list EC50 for each of these molecules?

Q: Which measured EC50 belongs to C(=C1CCCN=C1c1cccnc1)c1ccccc1 [BA, benzylidene anabaseine] , tested on α7 nAChR S36V mutant (Homo sapiens, UniProt P36544, S58V)?
Ans: 27 µM

Q: Same thing, different molecule: Oc1ccc(/C=C2\CCCN=C2c2cccnc2)cc1 [4OHBA, (E)-3-(4-hydroxybenzylidene)anabaseine]
Ans: 0.25 µM

Q: Same thing, different molecule: Cc1ccc(C=C2CCCN=C2c2cccnc2)cc1 [4MeBA, 3-(4-methylbenzylidene)anabaseine]
Ans: 3.5 µM

---

TESTED_ON: α7 nAChR S36T mutant (Homo sapiens, UniProt P36544, S58T)
Sequence (P36544 23-502 S58T): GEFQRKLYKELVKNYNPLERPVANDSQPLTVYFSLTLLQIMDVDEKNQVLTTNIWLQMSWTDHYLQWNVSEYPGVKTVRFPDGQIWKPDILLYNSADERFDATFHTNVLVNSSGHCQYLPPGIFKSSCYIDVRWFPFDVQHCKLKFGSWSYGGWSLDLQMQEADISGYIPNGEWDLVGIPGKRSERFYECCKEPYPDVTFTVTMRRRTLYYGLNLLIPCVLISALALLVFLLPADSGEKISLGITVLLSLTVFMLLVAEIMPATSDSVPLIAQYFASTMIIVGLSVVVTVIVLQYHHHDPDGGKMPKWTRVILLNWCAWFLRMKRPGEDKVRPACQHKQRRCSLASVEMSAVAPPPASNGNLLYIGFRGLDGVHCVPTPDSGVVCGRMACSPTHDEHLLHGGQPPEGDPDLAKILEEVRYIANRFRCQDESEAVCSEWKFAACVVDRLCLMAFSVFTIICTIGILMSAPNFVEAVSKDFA
ASSAY_SUMMARY: Concentration-response curves
TEST_CONTEXT: net charge CRC, parenthetical = curve-fit error
Would you kindly list EC50 for each of these compounds?
Value expressed in µM; do not type the unit.

Q: For the compound Oc1ccc(/C=C2\CCCN=C2c2cccnc2)cc1 [4OHBA, (E)-3-(4-hydroxybenzylidene)anabaseine] , what EC50 is on record?
Ans: 5.9

Q: Same thing, different compound: `Cc1ccc(C=C2CCCN=C2c2cccnc2)cc1`
Ans: 34

Q: Same thing, different compound: `C(=C1CCCN=C1c1cccnc1)c1ccccc1`
Ans: 68

---

TESTED_ON: α7 nAChR S36C mutant (Homo sapiens, UniProt P36544, S58C)
Sequence (P36544 23-502 S58C): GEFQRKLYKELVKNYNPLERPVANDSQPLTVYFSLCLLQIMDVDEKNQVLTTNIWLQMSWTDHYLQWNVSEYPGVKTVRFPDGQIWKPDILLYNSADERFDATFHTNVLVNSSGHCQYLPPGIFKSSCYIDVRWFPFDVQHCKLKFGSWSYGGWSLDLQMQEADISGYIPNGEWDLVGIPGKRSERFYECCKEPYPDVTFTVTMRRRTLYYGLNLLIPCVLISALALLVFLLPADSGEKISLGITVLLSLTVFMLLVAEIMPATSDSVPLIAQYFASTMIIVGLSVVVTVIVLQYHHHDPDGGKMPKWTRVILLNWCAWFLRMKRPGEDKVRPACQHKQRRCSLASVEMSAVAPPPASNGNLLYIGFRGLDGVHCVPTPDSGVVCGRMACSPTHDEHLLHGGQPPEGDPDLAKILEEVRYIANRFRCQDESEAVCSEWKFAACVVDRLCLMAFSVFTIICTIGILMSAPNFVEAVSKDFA
ASSAY_SUMMARY: Concentration-response curves
TEST_CONTEXT: net charge CRC, parenthetical = curve-fit error
MEASURED_PARAMETER: pEC50
// scale note: pEC50 = -log10(conc_M); give the bare number

Q: For the compound Oc1ccc(/C=C2\CCCN=C2c2cccnc2)cc1 [4OHBA, (E)-3-(4-hydroxybenzylidene)anabaseine] , what pEC50 is on record?
Ans: 6.12

Q: Same thing, different compound: Cc1ccc(C=C2CCCN=C2c2cccnc2)cc1 [4MeBA, 3-(4-methylbenzylidene)anabaseine]
Ans: 5.26

Q: Same thing, different compound: C(=C1CCCN=C1c1cccnc1)c1ccccc1 [BA, benzylidene anabaseine]
Ans: 4.66

---

TESTED_ON: α7 nAChR S36G mutant (Homo sapiens, UniProt P36544, S58G)
Sequence (P36544 23-502 S58G): as the sequence (P36544 23-502 S58C) above, with C36G counted along it
TEST_CONTEXT: net charge CRC, parenthetical = curve-fit error
MEASURED_PARAMETER: EC50 (µM)
Value expressed in µM; do not type the unit.

Q: For the compound `C(=C1CCCN=C1c1cccnc1)c1ccccc1` , what EC50 is on record?
Ans: 44

Q: Same thing, different compound: Oc1ccc(/C=C2\CCCN=C2c2cccnc2)cc1 [4OHBA, (E)-3-(4-hydroxybenzylidene)anabaseine]
Ans: 0.53

Q: Same thing, different compound: `Cc1ccc(C=C2CCCN=C2c2cccnc2)cc1`
Ans: 9.5

---

Would you kindly list pIC50 for each of these molecules?
TESTED_ON: α7 nAChR S36C mutant (Homo sapiens, UniProt P36544, S58C)
ASSAY_SUMMARY: Residual desensitization
TEST_CONTEXT: read-out: IC50 (RD curve), potency for producing long-lasting desensitization, 12 s applications
// scale note: pIC50 = -log10(conc_M); give the bare number

Q: For the molecule `Cc1ccc(C=C2CCCN=C2c2cccnc2)cc1` , what pIC50 is on record?
Ans: 4.28

Q: Same thing, different molecule: Oc1ccc(/C=C2\CCCN=C2c2cccnc2)cc1 [4OHBA, (E)-3-(4-hydroxybenzylidene)anabaseine]
Ans: 3.63

Q: Same thing, different molecule: `C(=C1CCCN=C1c1cccnc1)c1ccccc1`
Ans: 3.72
